FYI, the data here is from ChEMBL document CHEMBL1201862.

Catalogue of compounds with associated GI50
- System: NCI-H23
- TEST NAME: NCI tumour cell line growth inhibition, 48 h
Activity calls are given as the source filed them. Rule as the data show it: active = GI50 up to about 1.1 µM and inactive = higher.

                                  compound  endpoint_name             reported
0  Oc1ccc(Cn2c(-c3ccc(O)cc3)nc3ccccc32)cc1           GI50  > 100 µM (inactive)

For NCI-H23, provide GI50 of "COC(=O)Nc1nc2cc(NC(=O)c3cccs3)ccc2[nH]1" please.
35.4 µM (inactive)

For NCI-H23, provide GI50 of COc1cccc(C(C#N)NNC(=O)c2c(Cl)c(Cl)c(Cl)c(Cl)c2-c2nc3cc(C(=O)c4ccccc4)ccc3[nH]2)c1O (stereo not given) please.
5.74 µM (inactive)

For NCI-H23, provide GI50 of "COc1cccc(NC(=O)CC(=O)Nc2cccc(OC)c2)c1" please.
> 100 µM (inactive)

For NCI-H23, provide GI50 of "Cc1nnc(N/N=C2\C(=O)Nc3ccccc32)n1N" please.
> 100 µM (inactive)

###

- Test system: PC-3
- TEST NAME: NCI tumour cell line growth inhibition, 48 h
The source made the active and inactive calls. No stated cut-off is given here; in the data, active = GI50 up to about 1.1 µM and inactive = higher.
ENDPOINT NAME: GI50

Take a look at these entries with their results.
In [3]: df
Out[3]:
                                   compound  endpoint_name             reported
0  O=c1c2sc(=S)n(-c3ccc(F)cc3)c2ncn1/N=C/c1ccc(F)cc1F           GI50   31.6 µM (inactive)
1  O=C(O)C(Cc1c[nH]c2ccccc12)N1C(=O)c2ccccc2C1=O (stereo not given)           GI50  > 100 µM (inactive)

Recorded GI50 for "CS(=O)(=O)c1nc(-c2cc3c(c(S(C)(=O)=O)n2)CCC3)cc2c1CCCC2" , please?
> 100 µM (inactive)

Recorded GI50 for "Cc1cc(C)nc(NC(=S)Nc2ccc([N+](=O)[O-])cc2)c1" , please?
> 100 µM (inactive)

Recorded GI50 for "COc1cc2c(cc1OC)-c1cc3cc(OC)c(OC)cc3c(C)[n+]1CC2.O=C([O-])CS(=O)(=O)O" , please?
15.9 µM (inactive)

Recorded GI50 for "CC(C)(C)C(=O)Nc1c(C=O)ccc2[nH]cnc12" , please?
74.3 µM (inactive)

Recorded GI50 for COC(=O)c1c2c(cc3c1CC1(Cc4ccc(C(C)=O)cc4C1)C3)CCC2 (stereo not given) , please?
19.5 µM (inactive)

Recorded GI50 for O=C1OC(C(O)CO)C(C(O)CO)OC1=O (stereo not given) , please?
> 10 µM (inactive)

Recorded GI50 for "O=c1[nH]c2cccc([N+](=O)[O-])c2c(=O)n1-c1ccc(Cl)cc1" , please?
16.6 µM (inactive)

Recorded GI50 for "N#CCCN(CCC#N)c1ccc(/C=C2\N=C(c3ccccc3)N(c3ccccc3)C2=O)cc1" , please?
17 µM (inactive)

###

- Tested on: RXF 393
- TEST NAME: NCI tumour cell line growth inhibition, 48 h
The source made the active and inactive calls. Rule as the data show it: active = GI50 up to about 1.1 µM and inactive = higher.
ENDPOINT NAME: GI50

COMPOUND	ENDPOINT NAME	REPORTED
COC(=O)C1=CO[C@@H](OC2OC(CO)C(O)C(O)C2O)[C@H]2[C@@H](C)[C@@H](O)[C@@H](O)[C@@H]12 (some centres not stated)	GI50	> 100 µM (inactive)

For RXF 393, provide GI50 of CC[C@@H]1/C=C/C=C/C[C@H](C)[C@@H](O)[C@](C)(O)C(=O)[C@H](C)[C@@H](O)[C@H](C)C(=O)[C@H](C)[C@@H](O)[C@H](C)/C=C/C(=O)O[C@H]2[C@@H](C)[C@@H](CC1)O[C@]1(O[C@H](CC(C)O)[C@H](C)CC1=O)[C@@H]2C (some centres not stated) please.
3.6 µM (inactive)

For RXF 393, provide GI50 of COC(=O)CCC(C)[C@H]1CCC2C3C(C[C@H](OC(C)=O)[C@@]21C)[C@@]1(C)CCC2(C[C@H]1C[C@H]3OC(C)=O)OOC1(CCC(C(C)(C)C)CC1)OO2 (some centres not stated) please.
> 100 µM (inactive)

For RXF 393, provide GI50 of CSCSCC(CO)NC(=O)/C=C\c1c(C)[nH]c(=O)[nH]c1=O (configuration not stated) please.
26.5 µM (inactive)

For RXF 393, provide GI50 of "CN(C)S(=O)(=O)c1nc(Cl)c2nc[nH]c2n1" please.
55.7 µM (inactive)

For RXF 393, provide GI50 of CC(=O)N(C(=O)CC(=O)N1N=C(c2ccccc2)C(/N=N/c2ccccc2[N+](=O)[O-])C1=O)c1ccc(Cl)cc1 (configuration not stated) please.
> 10 µM (inactive)

For RXF 393, provide GI50 of "CCc1cccc(C)c1NC(=O)CCc1nnc(S)[nH]1" please.
> 100 µM (inactive)

###

- System: HOP-62
- TEST NAME: NCI tumour cell line growth inhibition, 48 h
Active and inactive are the calls of the source. Cut-off read from the data, not from the text of the source: active = GI50 up to about 1.1 µM and inactive = higher.
Please reply with one of these outcomes: T = active, F = inactive

In [3]: df
Out[3]:
                                   compound  cat
0                  CC12C(=O)CC(CC1=O)C2(C)C    F
1        Cc1ccc(C(=O)N2CCCCC2)cc1/N=N/N(C)C    F
2  Brc1ccc2[nH]cc(-c3nc(-c4c[nH]c5ccccc45)cs3)c2c1    F
3  O=C1c2c(O)cccc2C(C2OC(CO)C(O)C(O)C2O)c2cc(CO)cc(O)c21 (stereo not given)    F
4  C=CCC1NCCC2=C1C(S(=O)(=O)c1ccc(C)cc1)c1ccccc12 (stereo not given)    F

Look up the recorded call for "Oc1ccc(Cl)cc1C1=Nn2c(COc3ccc4c(c3)CCCC4)nnc2SC1" in this test.
F

Look up the recorded call for "CCOC(=O)CNC1=NNS(=O)(=O)c2ccccc21" in this test.
F

###

- Test system: PC-3
- TEST NAME: NCI tumour cell line growth inhibition, 48 h
Calls of active or inactive are those of the source. No stated cut-off is given here; in the data, active = GI50 up to about 1.1 µM and inactive = higher. Starred links: 1 amine or outer side, 2 acyl side, 3 side chain; linkers in the order of their positions; H or OH if unused. Non-standard residues stand in square brackets, D forms with d. Residues, ends and D or L forms follow the SMILES beside them. X4 = C[C@H](N[*:1])C(=O)C(C)(C)C(=O)[*:2]; Hmpa(2S,3S) = CC[C@H](C)[C@H](O)C(=O)O; NMeY = CN[C@@H](Cc1ccc(O)cc1)C(=O)O; NMeL = CN[C@@H](CC(C)C)C(=O)O; NMeV = CN[C@H](C(=O)O)C(C)C; βAla = NCCC(=O)O
Please reply with one of these outcomes: Yes = active, No = inactive

Completed entries (count: 8):
COMPOUND	CAT
CCOC(=O)C(NC(=O)c1cccc(Cl)c1)(Nc1cccc(C)c1)C(F)(F)F (stereo unspecified)	No
CC[C@H](C)[C@@H]1OC(=O)CCNC(=O)[C@@H](C)NC(=O)C(C)(C)C(=O)[C@H](C)NC(=O)[C@H](Cc2ccc(OC)cc2)N(C)C(=O)[C@H](C(C)C)N(C)C(=O)CNC(=O)[C@H](CC(C)C)N(C)C(=O)CNC1=O (cyclo(G[NMeL]G[NMeV][NMeY](Me)[X4][dA][βAla][Hmpa(2S,3S)]))	Yes
CCCCn1cc(C(=O)O)c(=O)c2c3sccc3ccc21	No
Oc1ccc2ccccc2c1/N=N/c1ccc(/N=N/c2ccccc2)cc1	No
O=C(c1ccccc1)N1C(=S)N(c2ccc([N+](=O)[O-])cc2)C(=N/c2ccccc2)/C1=N\c1ccccc1	No
COc1ccccc1C#C/C=C\C#Cc1ccccc1C#N	No
c1cc2nnc1SCCCSc1ccc(nn1)SCCCSc1ccc(nn1)SCCCS2	No
COc1ccc(OC)c(/C=C2/C(=O)N/C(=N\C(C)=O)N2C)c1	No

Look up the recorded call for CC(=O)O[C@H]1C(=O)[C@@]2(C)C(C(OC(=O)c3ccccc3)[C@]3(O)CC(OC(=O)C(O)C(NC(=O)c4cccc(Cl)c4)c4ccccc4)C(C)=C1C3(C)C)[C@]1(OC(C)=O)CO[C@@H]1C[C@@H]2O (stereo partly specified) in this test.
No

Look up the recorded call for "C[n+]1c2ccccc2c(C(=O)Nc2ccc(S(=O)(=O)Nc3ccnn3-c3ccccc3)cc2)c2ccccc21" in this test.
No

Look up the recorded call for O=C(O)CCC(N/N=N/c1ccc(-c2nc3ccccc3[nH]2)cc1)C(=O)O (stereo unspecified) in this test.
No

Look up the recorded call for "CCOC(=O)/C=C(/C(=O)OCC)n1cc(C)c(=O)n(Cc2cnnn2CCCCOC(C)=O)c1=O" in this test.
No

Look up the recorded call for CCOC(=O)c1c(-c2ccc(OC)c(O)c2)c(C#N)c(=S)n(C2OC(CO)C(O)C(O)C2O)c1-c1ccccc1 (stereo unspecified) in this test.
No

Look up the recorded call for COC(=O)c1cc2c(c3c1CC(Cc1ccccc1)C3=O)CCC2 (stereo unspecified) in this test.
No

Look up the recorded call for CCOC(=O)CCC(NC(=O)c1ccc(NCc2ccc3nc(OC)c(OC)nc3c2)c2ccccc12)C(=O)OCC (stereo unspecified) in this test.
No

Look up the recorded call for "COc1ccccc1N1C(=O)CC(=O)N(C(=O)CCCCCCCCC(=O)N2C(=O)CC(=O)N(c3ccccc3OC)C2=S)C1=S" in this test.
No
